pIC50: −log10 of the molar value.
Endpoint summary: pIC50, system: TYRO3 (Homo sapiens, UniProt Q06418), multiple sources combined.

# compound.string, reported.measurement
measured = [
    ("COc1cc2nccc(Oc3cnc(NC(=O)c4nn(CC5CCOCC5)cc(-c5ccc(C)cc5)c4=O)nc3)c2cc1OC", 7.64),
    ("C[C@H](CF)Nc1ncc2c(OC3CCOCC3)ncc([C@H]3CC[C@H](O)CC3)c2n1", "6.00 to 7.00"),
]

Ask: Give measured pIC50 for `Cc1cc(-c2n[nH]c3ncc(-c4ccc5c(c4)CC[C@@H](N4CCCC4)CC5)cc23)cc(Cl)c1C(N)=O` (TYRO3 (Homo sapiens, UniProt Q06418)).
Result: > 7.00

Ask: Give measured pIC50 for `COC[C@H](C)Nc1ncc2c(OC3CCOCC3)ncc(-c3ccnnc3)c2n1` (TYRO3 (Homo sapiens, UniProt Q06418)).
Result: 5.00 to 6.00

Ask: Give measured pIC50 for `CC[C@H](C)Nc1ncc2c(=O)n(C3CCOCC3)cc([C@H]3CC[C@H](O)CC3)c2n1` (TYRO3 (Homo sapiens, UniProt Q06418)).
Result: ≥ 7.00

Ask: Give measured pIC50 for `Cc1c(-c2ncccn2)cc(C(=O)Nc2ccc(-c3cc(C4CCN(C(=O)C(C)C)CC4)n4ncnc(N)c34)cc2)c(=O)n1-c1ccccc1` (TYRO3 (Homo sapiens, UniProt Q06418)).
Result: 7.00 to 8.00

Ask: Give measured pIC50 for `COC[C@H](C)Nc1ncc2c(-c3ccc(CN4CCN(C(C)=O)CC4)cc3)cc([C@H]3CC[C@H](O)CC3)n2n1` (TYRO3 (Homo sapiens, UniProt Q06418)).
Result: ≥ 7.00

###

Endpoint summary: IC50, system: TYRO3 (Homo sapiens), multiple sources combined.

Ask: Determine its reported IC50: `CC[C@H](C)Nc1ncc2c(C3CCN(C)CC3)ncc([C@H]3CC[C@H](O)CC3)c2n1`
Result: 0.1 to 1 µM

Ask: Determine its reported IC50: `COC[C@H](C)Nc1ncc2c([C@H]3CC[C@@H](C(=O)N4CCOCC4)CC3)cc([C@H]3CC[C@H](O)CC3)n2n1`
Result: ≤ 0.1 µM

Ask: Determine its reported IC50: `C[C@@H](CC(F)(F)F)Nc1ncc2c(-c3cncc([S@](C)(=N)=O)c3)cc([C@H]3CC[C@H](O)CC3)n2n1`
Result: ≤ 0.1 µM

Ask: Determine its reported IC50: COC1CCN(C(=O)c2ccc(-c3n[nH]c4ncc(-c5ccc6c(c5)CCC(C)(N5CCC[C@H]5C)CC6)cc34)cc2Cl)CC1 (stereo partly shown)
Result: < 0.1 µM

Ask: Determine its reported IC50: `COC[C@H](C)Nc1ncc2c(-c3ccnc(N4CCOCC4)c3)cc([C@H]3CC[C@H](O)CC3)n2n1`
Result: ≤ 0.1 µM

Ask: Determine its reported IC50: `CCCCC[C@H](C)Nc1ncc2c(N3CCNCC3)cc([C@H]3CC[C@H](O)CC3)n2n1`
Result: ≤ 0.1 µM

Ask: Determine its reported IC50: C[C@@H]1CCCN1C1CCc2ccc(-c3cnc4[nH]nc(-c5ccc(C(C)(C)O)cn5)c4c3)cc2CC1 (stereo partly shown)
Result: 0.1 to 1 µM

Ask: Determine its reported IC50: `C[C@@H](CC(F)(F)F)Nc1ncc2c(OC3CCN(c4ncccn4)CC3)ncc([C@H]3CC[C@H](O)CC3)c2n1`
Result: ≤ 0.1 µM

Ask: Determine its reported IC50: `COC[C@H](C)Nc1ncc2c(O[C@H]3C[C@H](O)C3)ncc([C@H]3CC[C@H](O)CC3)c2n1`
Result: ≤ 0.1 µM

Ask: Determine its reported IC50: `Cc1c(-c2cncc(F)c2)c(=O)c(C(=O)Nc2ccc(-c3cc(C4CCN(C(=O)C(C)C)CC4)n4ncnc(N)c34)cc2)cn1C(C)C`
Result: 0.01 to 0.1 µM

Ask: Determine its reported IC50: `CCc1cc(-c2ccc(NC(=O)c3cc4c(n(-c5ccc(F)cc5)c3=O)CCCC4=O)cc2)c2c(N)ncnn12`
Result: > 0.1 µM

###

Endpoint summary: pIC50, system: TYRO3 (Homo sapiens), multiple sources combined.
pIC50: −log10 of the molar value.

# compound.string, pIC50
data = [
    ("CNC(=O)c1cc(-c2cc([C@H]3CC[C@H](O)CC3)n3nc(N[C@@H](C)CC(F)(F)F)ncc23)ccn1", "≥ 7.00"),
]

Ask: Give measured pIC50 for `CCCCC[C@H](C)Nc1ncc2c([C@H]3CC[C@@H](C(=O)O)CC3)cc([C@H]3CC[C@H](O)CC3)n2n1` (TYRO3 (Homo sapiens)).
Result: 6.00 to 7.00

Ask: Give measured pIC50 for `C[C@@H](CC(F)(F)F)Nc1ncc2c(OC3CCN(C)CC3)ncc([C@H]3CC[C@H](O)CC3)c2n1` (TYRO3 (Homo sapiens)).
Result: ≥ 7.00

Ask: Give measured pIC50 for `CC(=O)N1CCC(c2cc(-c3ccc(NC(=O)c4cccn(-c5ccccc5)c4=O)cc3)c3c(N)ncnn23)CC1` (TYRO3 (Homo sapiens)).
Result: 7.00 to 8.00

###

Endpoint summary: IC50, system: TYRO3 (Homo sapiens), multiple sources combined.

Ask: Determine its reported IC50: [2H]C([2H])([2H])OCC(C)Nc1ncc2c(-c3cnn(C4COC4)c3)cc(C3CCC(O)CC3)n2n1 (stereo not drawn)
Result: ≤ 100 nM

Ask: Determine its reported IC50: `CC[C@H](C)Nc1ncc2c(C3=CCOCC3)cc([C@H]3CC[C@H](O)CC3)n2n1`
Result: ≤ 100 nM

Ask: Determine its reported IC50: `C[C@H](Nc1ncc2c(OC3CCNCC3)ncc([C@H]3CC[C@H](O)CC3)c2n1)c1ccccc1`
Result: > 10000 nM

Ask: Determine its reported IC50: `CS(=O)(=O)c1ccc(-c2n[nH]c3ncc(-c4ccc5c(c4)CCN(C4CCCC4)CC5)cc23)cc1Cl`
Result: < 100 nM

Ask: Determine its reported IC50: `CC(C)(O)c1ccc(-c2n[nH]c3ncc(-c4ccc5c(c4)CCN(C4CCCC4)CC5)cc23)cc1C(F)(F)F`
Result: 100 to 1000 nM

Ask: Determine its reported IC50: `COC[C@H](C)Nc1ncc2c(-c3ccnc(N4CCNC(=O)C4)c3)cc([C@H]3CC[C@H](O)CC3)n2n1`
Result: ≤ 100 nM

Ask: Determine its reported IC50: `CC[C@H](C)Nc1ncc2c(O[C@H]3CC[C@@H](N(C)C)C3)ncc([C@H]3CC[C@H](O)CC3)c2n1`
Result: ≤ 100 nM

Ask: Determine its reported IC50: COCC(C)Nc1ncc2c(-c3cccc(C)n3)cc(C3CCC(O)CC3)n2n1 (stereo not drawn)
Result: ≤ 100 nM

Ask: Determine its reported IC50: `COC[C@H](C)Nc1ncc2c(-c3cncc(F)c3)cc([C@H]3CC[C@H](O)CC3)n2n1`
Result: ≤ 100 nM

Ask: Determine its reported IC50: `CC(C)Nc1ncc2c(OC3CCNCC3)ncc([C@H]3CC[C@H](O)CC3)c2n1`
Result: ≤ 100 nM

Ask: Determine its reported IC50: `COC[C@H](C)Nc1ncc2c(OC3CCOCC3)ncc(-c3cccc(S(=O)(=O)N(C)C)c3)c2n1`
Result: 100 to 1000 nM

Ask: Determine its reported IC50: C[C@@H](CC(F)(F)F)Nc1ncc2c(-c3cnn(C(C)(C)C(=O)N4CCN(C)CC4)c3)cc(C3CCC(O)CC3)n2n1 (stereo partly drawn)
Result: ≤ 100 nM

Ask: Determine its reported IC50: `COCCN1C(C)(C)CC(Oc2ncc([C@H]3CC[C@H](O)CC3)c3nc(N[C@@H](C)CF)ncc23)CC1(C)C`
Result: ≤ 100 nM

Ask: Determine its reported IC50: `COCCn1cc(-c2cc([C@H]3CC[C@H](O)CC3)n3nc(N[C@@H](C)CC(F)(F)F)ncc23)cn1`
Result: ≤ 100 nM

Ask: Determine its reported IC50: `COC[C@H](C)Nc1ncc2c(-c3cccc(N4C[C@H]5COC[C@H]5C4)c3)cc([C@H]3CC[C@H](O)CC3)n2n1`
Result: ≤ 100 nM

Ask: Determine its reported IC50: `CN1CCC(c2cc(-c3ccc(NC(=O)c4cccn(-c5ccccc5)c4=O)cc3F)c3c(N)ncnn23)CC1`
Result: 10 to 100 nM

Ask: Determine its reported IC50: `Nc1ncnn2c(C3CCNCC3)cc(-c3ccc(NC(=O)c4cccn(-c5ccccc5)c4=O)cc3)c12`
Result: 10 to 100 nM

Ask: Determine its reported IC50: C[C@@H]1CCCN1C1(C)CCc2ccc(-c3cnc4[nH]nc(-c5ccc(N6CCOCC6)cc5)c4c3)cc2CC1 (stereo partly drawn)
Result: 100 to 1000 nM
